- Test system: corn (Zea mays)
- MEASUREMENT DESCRIPTION: Test C preemergence
- Type: in vivo
- RUN PARAMETERS: preemergence, Rate 250 g/ha, visual evaluation after 12 to 14 days
READOUT NAME: Plant response rating (0 to 100), Corn

| COMPOUND | TARGET | READOUT NAME | MEASURED NUMBER |
| --- | --- | --- | --- |
| CC(C)(C)c1ccn(C2CCN(c3cccc(C(F)(F)F)c3)C2=S)n1 (stereo not drawn) [Compound 22] | corn (Zea mays) | Plant response rating (0 to 100), Corn | 20 |
| O=C1C(n2ccc(C3CCCCC3)n2)SCN1c1cccc(C(F)(F)F)c1 (stereo not drawn) [Compound 52] | corn (Zea mays) | Plant response rating (0 to 100), Corn | 20 |
| CC1(c2ccn(C3SCN(c4cccc(OC(F)(F)F)c4)C3=O)n2)CC1 (stereo not drawn) [Compound 63] | corn (Zea mays) | Plant response rating (0 to 100), Corn | 20 |
| CC(C)c1ccn(C2SCN(c3cccc(OC(F)(F)F)c3)C2=O)n1 (stereo not drawn) [Compound 31] | corn (Zea mays) | Plant response rating (0 to 100), Corn | 40 |
| Cc1ccc(N2CCC(n3ccc(C(C)(C)C)n3)C2=O)cc1OC(F)F (stereo not drawn) [Compound 79] | corn (Zea mays) | Plant response rating (0 to 100), Corn | 0 |
| O=C1C(n2ccc(C3CCCCC3)n2)OCN1c1cccc(C(F)(F)F)c1 (stereo not drawn) [Compound 51] | corn (Zea mays) | Plant response rating (0 to 100), Corn | 0 |
| O=C1C(n2ccc(C3CCC3)n2)SCN1c1cccc(OC(F)F)c1 (stereo not drawn) [Compound 45] | corn (Zea mays) | Plant response rating (0 to 100), Corn | 0 |
| CCC(C)c1ccn(C2OCN(c3cccc(OC(F)(F)F)c3)C2=O)n1 (stereo not drawn) [Compound 67] | corn (Zea mays) | Plant response rating (0 to 100), Corn | 0 |
| COc1cccc(N2CCC(n3ccc(C(C)(C)C)n3)C2=O)c1 (stereo not drawn) [Compound 87] | corn (Zea mays) | Plant response rating (0 to 100), Corn | 70 |

###

- Test system: morningglory (Ipomoea hederacea)
- MEASUREMENT DESCRIPTION: Test C preemergence
- Assay type: in vivo
- RUN PARAMETERS: preemergence, Rate 500 g/ha, visual evaluation after 12 to 14 days
READOUT NAME: Plant response rating (0 to 100), Morningglory

| COMPOUND | MEASURED NUMBER |
| --- | --- |
| CC1(c2ccn(C3SCN(c4cccc(C(F)(F)F)c4)C3=O)n2)CC1 (stereo not drawn) [Compound 64] | 60 |
| CCC(C)c1ccn(C2CCN(c3ccc(C)c(OC)c3)C2=O)n1 (stereo not drawn) [Compound 80] | 100 |
| CCC(CC)c1ccn(C2CCN(c3cccc(OC(C)C)c3)C2=O)n1 (stereo not drawn) [Compound 84] | 20 |
| CCCOc1cc(N2CCC(n3ccc(C(C)(C)C)n3)C2=O)ccc1C (stereo not drawn) [Compound 107] | 100 |
| CCC(C)c1ccn(C2CCN(c3ccc(Br)c(OC)c3)C2=O)n1 (stereo not drawn) [Compound 142] | 100 |
| CCC(C)Oc1cccc(N2CCC(n3ccc(C(C)(C)C)n3)C2=O)c1 (stereo not drawn) [Compound 127] | 20 |

###

- Tested on: rice (Oryza saliva)
- MEASUREMENT DESCRIPTION: Test B preemergence
- Assay type: in vivo
- RUN PARAMETERS: preemergence; Rate 125 g/ha; scale 0 to 100, 0 no effect, 100 complete control

| COMPOUND | TARGET | Plant response rating, Rice |
| --- | --- | --- |
| Cc1cn(C2CCN(c3cccc(C(F)(F)F)c3)C2=O)nc1C(C)C (centres unmarked) [Compound 17] | rice (Oryza saliva) | 0 |
| CCC(CC)c1ccn(C2SCN(c3cccc(C(F)(F)F)c3)C2=O)n1 (centres unmarked) [Compound 21] | rice (Oryza saliva) | 0 |
| O=C1C(n2ccc(C3CC3)n2)SCN1c1cccc(C(F)(F)F)c1 (centres unmarked) [Compound 26] | rice (Oryza saliva) | 40 |
| CC(C)c1ccn(C2OCN(c3cccc(C(F)(F)F)c3)C2=O)n1 (centres unmarked) [Compound 27] | rice (Oryza saliva) | 0 |
| CC1(C)CCc2cn(C3CCN(c4cccc(C(F)(F)F)c4)C3=O)nc21 (centres unmarked) [Compound 10] | rice (Oryza saliva) | 0 |

###

Listing of recorded Plant response rating (0 to 100), Sunflower by entry.
- System: Sunflower
- MEASUREMENT DESCRIPTION: Test C preemergence
- Type: in vivo
- RUN PARAMETERS: Rate 250 g/ha, visual evaluation after 12 to 14 days
READOUT NAME: Plant response rating (0 to 100), Sunflower

| COMPOUND | RESULT |
| --- | --- |
| CC(C)c1ccn(C2SCN(c3cccc(OC(F)(F)F)c3)C2=O)n1 (stereo not drawn) | 40 |
| CC(C)(C)c1ccn(C2CCN(c3ccc(Cl)c(Cl)c3)C2=O)n1 (stereo not drawn) | 0 |
| CCC(C)c1ccn(C2SCN(c3cccc(OC(F)(F)F)c3)C2=O)n1 (stereo not drawn) | 70 |
| O=C1C(n2ccc(C3CC3)n2)OCN1c1cccc(C(F)(F)F)c1 (stereo not drawn) | 40 |
| O=C1C(n2ccc(C3CCCCC3)n2)SCN1c1cccc(OC(F)(F)F)c1 (stereo not drawn) | 30 |
| CC(C)c1ccn(C2SCN(c3cccc(OC(F)F)c3)C2=O)n1 (stereo not drawn) | 20 |

###

Catalogue of compounds with associated Plant response rating, Velvetleaf
- Test system: velvetleaf (Abutilon theophrasti)
- MEASUREMENT DESCRIPTION: Test B postemergence
- Assay type: in vivo
- RUN PARAMETERS: Rate 500 g/ha, scale 0 to 100, 0 is no effect, 100 is complete control, 13 to 15 days

| COMPOUND | Plant response rating, Velvetleaf |
| --- | --- |
| CCOC(=O)c1cccc(N2CCC(n3ccc(C(C)(C)C)n3)C2=O)c1 (stereo not drawn) | 60 |
| CC(C)(C)c1ccn(C2SCN(c3cccc(OC(F)F)c3)C2=O)n1 (stereo not drawn) | 60 |
| CCOc1ccn(C2CCN(c3cccc(C(F)(F)F)c3)C2=O)n1 (stereo not drawn) | 0 |
| Cc1cc(N2CCC(n3ccc(C(C)(C)C)n3)C2=O)cc(Br)c1C (stereo not drawn) | 0 |
| O=C1C(n2ccc(C3CCCCC3)n2)SCN1c1cccc(OC(F)(F)F)c1 (stereo not drawn) | 0 |
| Cc1ccc(N2CCC(n3ccc(C(C)(C)C)n3)C2=O)cc1OCCCl (stereo not drawn) | 80 |
| CCCC(C)c1ccn(C2SCN(c3cccc(C(F)(F)F)c3)C2=O)n1 (stereo not drawn) | 20 |
| CC(C)(C)c1ccn(C2CCN(c3cccc(C(F)(F)F)c3)C2=S)n1 (stereo not drawn) | 30 |
| CC1(C)CCc2cn(C3CCN(c4cccc(C(F)(F)F)c4)C3=O)nc21 (stereo not drawn) | 0 |

###

Collected Plant response rating, Cocklebur values appear next to each entry.
- Test system: cocklebur (Xanthium strumarium)
- MEASUREMENT DESCRIPTION: Test B postemergence
- Type: in vivo
- RUN PARAMETERS: Rate 125 g/ha, scale 0 (no effect) to 100 (complete control), 13 to 15 days
READOUT NAME: Plant response rating, Cocklebur

| COMPOUND | READOUT NAME | MEASURED NUMBER |
| --- | --- | --- |
| CC1(c2ccn(C3OCN(c4cccc(C(F)(F)F)c4)C3=O)n2)CC1 (centres unmarked) | Plant response rating, Cocklebur | 0 |
| CC(C)(C)c1ccn(C2CCN(c3cccc(C(F)(F)F)c3)C2=O)n1 (centres unmarked) | Plant response rating, Cocklebur | 0 |
| CCC(CC)c1ccn(C2OCN(c3cccc(OC(F)(F)F)c3)C2=O)n1 (centres unmarked) | Plant response rating, Cocklebur | 50 |
| O=C1C(n2cccn2)CCN1c1cccc(C(F)(F)F)c1 (centres unmarked) | Plant response rating, Cocklebur | 0 |
| O=C1C(n2ccc(C3CCC3)n2)OCN1c1cccc(C(F)(F)F)c1 (centres unmarked) | Plant response rating, Cocklebur | 0 |

###

Measured Plant response rating, Corn by item
- System: corn (Zea mays)
- MEASUREMENT DESCRIPTION: Test B preemergence
- Assay type: in vivo
- RUN PARAMETERS: Preemergence, Rate 500 g/ha; scale 0 to 100, 0 no effect, 100 complete control

| COMPOUND | Plant response rating, Corn |
| --- | --- |
| CC(C)c1ccn(C2OCN(c3cccc(OC(F)(F)F)c3)C2=O)n1 (centres unmarked) [Compound 65] | 0 |
| Cc1ccc(N2CCC(n3ccc(C(C)(C)C)n3)C2=O)cc1OC(C)C (centres unmarked) [Compound 110] | 0 |
| Cc1ccn(C2SCN(c3cccc(C(F)(F)F)c3)C2=O)n1 (centres unmarked) [Compound 19] | 0 |
| CCCC(C)c1ccn(C2OCN(c3cccc(OC(F)(F)F)c3)C2=O)n1 (centres unmarked) [Compound 91] | 30 |
| CCOc1ccn(C2CCN(c3cccc(C(F)(F)F)c3)C2=O)n1 (centres unmarked) [Compound 61] | 0 |
